Entries and their GI50 values follow.
- System: Her2 Exon 20 INSYVMA Ba/F3 (Homo sapiens, UniProt P04626, DUP772-775, cells depend on it)
- Sequence (P04626 with tags, fused parts or gaps DUP772-775): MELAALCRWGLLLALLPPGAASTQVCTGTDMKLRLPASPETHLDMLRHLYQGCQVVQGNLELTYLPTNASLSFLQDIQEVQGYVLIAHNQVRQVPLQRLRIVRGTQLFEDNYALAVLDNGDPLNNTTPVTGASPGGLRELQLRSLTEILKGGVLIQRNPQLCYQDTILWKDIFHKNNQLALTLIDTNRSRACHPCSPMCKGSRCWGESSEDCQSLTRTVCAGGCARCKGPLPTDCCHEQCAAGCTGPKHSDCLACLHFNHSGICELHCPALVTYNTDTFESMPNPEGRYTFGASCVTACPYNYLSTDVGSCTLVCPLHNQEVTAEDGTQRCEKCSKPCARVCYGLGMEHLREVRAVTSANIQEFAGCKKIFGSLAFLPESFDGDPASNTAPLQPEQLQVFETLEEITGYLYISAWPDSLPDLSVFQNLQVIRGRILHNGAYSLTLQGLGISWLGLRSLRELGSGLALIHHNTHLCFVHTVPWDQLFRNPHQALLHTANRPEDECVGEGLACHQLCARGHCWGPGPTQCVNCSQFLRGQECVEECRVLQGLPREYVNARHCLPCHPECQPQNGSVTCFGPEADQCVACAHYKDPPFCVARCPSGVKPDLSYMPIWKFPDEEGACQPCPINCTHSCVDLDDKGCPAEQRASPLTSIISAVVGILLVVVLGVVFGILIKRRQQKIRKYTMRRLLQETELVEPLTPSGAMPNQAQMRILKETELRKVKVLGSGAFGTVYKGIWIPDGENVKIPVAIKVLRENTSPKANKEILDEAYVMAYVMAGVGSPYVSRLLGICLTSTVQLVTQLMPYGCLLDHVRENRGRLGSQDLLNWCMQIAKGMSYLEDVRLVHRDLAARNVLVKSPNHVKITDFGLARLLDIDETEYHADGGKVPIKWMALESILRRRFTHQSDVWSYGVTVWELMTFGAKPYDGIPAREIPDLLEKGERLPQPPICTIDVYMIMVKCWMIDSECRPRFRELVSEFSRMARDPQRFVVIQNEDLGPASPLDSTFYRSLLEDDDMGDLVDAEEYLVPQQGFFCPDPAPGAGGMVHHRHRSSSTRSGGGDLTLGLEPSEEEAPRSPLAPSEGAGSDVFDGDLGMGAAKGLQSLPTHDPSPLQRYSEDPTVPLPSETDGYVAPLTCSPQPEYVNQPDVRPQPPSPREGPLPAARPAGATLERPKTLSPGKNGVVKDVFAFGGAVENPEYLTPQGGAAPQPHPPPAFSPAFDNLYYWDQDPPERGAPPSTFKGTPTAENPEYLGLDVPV
- Protocol: Her2 Exon 20 INSYVMA Ba/F3 CellTiter-Glo
- Type: cell-based
- Conditions: CellTiter-Glo, 72 h, read-out: Her2 Exon 20 INSYVMA Ba/F3 CTG IC50

# input Entry `C=CC(=O)Nc1cc(-c2c(-c3ccc(OCCCN(C)C)cc3)[nH]c3nccc(Cl)c23)ccc1C` : reported GI50 = ?
# output 100 to 500 nM

---
# input Look at this compound and give its reported GI50. `C=CC(=O)Nc1cc(-c2c(-c3ccnc(N4CCN(C)CC4)c3)[nH]c3ncc(C(=O)OC(C)C)cc23)cc(F)c1C`
# output 100 to 500 nM

# input Item under review: `C=CC(=O)N1CCCc2ccc(-c3c(-c4ccc(C5CCN(C)CC5)cc4)[nH]c4nccc(Cl)c34)cc21` . Reported GI50?
# output 500 to 1000 nM

# input Look up GI50: `C=CC(=O)N1CCc2ccc(-c3c(-c4ccnc(N5CCN(C)CC5)c4)[nH]c4nccc(Cl)c34)cc21`
# output 100 to 500 nM

# input Sample `C=CC(=O)Nc1cc(-c2c(-c3ccc(N4CCOCC4)nc3)[nH]c3ncc(C(=O)OC(C)C)cc23)ccc1C` — what was its GI50?
# output 1000 to 10000 nM

# input Could you share which GI50 value was measured for `C=CC(=O)N1CCc2ccc(-c3c(-c4ccc(CN(C)C)cc4)[nH]c4nccc(Cl)c34)cc21` ?
# output 100 to 500 nM

# input Give the measured GI50 of C=CC(=O)NCc1cccc(-c2c(-c3ccc(N4CCN(C)CC4)cc3)[nH]c3ncc(C(=O)OC(C)C)cc23)c1 [Example 203, 2,2,2-trifluoroacetate] .
# output 1000 to 10000 nM

# input Query: GI50; subject: `C=CC(=O)Nc1cc(-c2c(-c3cccc(CN4CCOCC4)c3)[nH]c3ncccc23)ccc1C`
# output 1000 to 10000 nM

# input Using the record for `C=CC(=O)Nc1cc(-c2c(-c3ccc(N4CCN(C)CC4)nc3)[nH]c3ncc(C(=O)OC(C)C)cc23)ccc1C` , report its GI50.
# output 500 to 1000 nM

# input Fill in the blank: the reported GI50 of C=CC(=O)Nc1cc(-c2c(-c3ccnc(N4CCN(C)CC4)c3)[nH]c3ncc(C(=O)OC(C)C)cc23)ccc1C [Example 156, 2,2,2-trifluoroacetate] is ____.
# output 100 to 500 nM

# input What does the record list as GI50 for `C=CC(=O)Nc1cc(-c2c(-c3ccc(NC(C)=O)cc3)[nH]c3nccc(Cl)c23)ccc1C` ?
# output 500 to 1000 nM

# input Given `C=CC(=O)Nc1cc(-c2c(-c3ccc(CN4CCOCC4)cc3)[nH]c3nccc(Cl)c23)ccc1C` , state its recorded GI50.
# output 100 to 500 nM

# input # get_value(readout='GI50', item= `C=CC(=O)N1CCc2ccc(-c3c(-c4ccc(CN5CCN(C)CC5)cc4)[nH]c4nccc(Cl)c34)cc21` )
# output 100 to 500 nM

# input Look at this compound and give its reported GI50. Cc1ccc(-c2c(-c3ccc(N4CCN(C)CC4)cc3)[nH]c3nccc(Cl)c23)cc1NC(=O)/C=C/CN(C)C [Example 143, 2,2,2-trifluoroacetate]
# output 100 to 500 nM

# input Using the record for C=CC(=O)Nc1cc(-c2c(-c3ccc(N4CCN(C)CC4)cc3)[nH]c3ncc(CO)cc23)ccc1C [Example 199, 2,2,2-trifluoroacetate] , report its GI50.
# output 500 to 1000 nM
